target: Induced myeloid leukemia cell differentiation protein Mcl-1 (Homo sapiens, UniProt Q07820); experiment: Displacement of FITC-Bim BH3 peptide from Mcl-1 after 10 mins by fluorescence polarization assay
Sequence (Q07820 whole entry): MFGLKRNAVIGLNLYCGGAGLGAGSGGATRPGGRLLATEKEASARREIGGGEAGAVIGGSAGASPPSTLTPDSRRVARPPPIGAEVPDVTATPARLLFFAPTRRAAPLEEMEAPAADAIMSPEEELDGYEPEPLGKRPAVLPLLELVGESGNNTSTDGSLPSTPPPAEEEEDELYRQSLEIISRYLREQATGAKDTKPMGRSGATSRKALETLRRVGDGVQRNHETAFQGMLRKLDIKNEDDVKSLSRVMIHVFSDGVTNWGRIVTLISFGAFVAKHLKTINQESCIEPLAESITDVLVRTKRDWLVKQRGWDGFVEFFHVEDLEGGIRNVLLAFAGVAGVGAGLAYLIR
attribute-measured: Ki (nM)
Answers are plain numbers, in nM.

CC1=C(C2=C(C)C(=O)c3c(cc(O)c(O)c3CCC3CCCCC3)C2=O)C(=O)c2cc(O)c(O)c(CCC3CCCCC3)c2C1=O | 3930
CC1=C(C2=C(C)C(=O)c3c(cc(O)c(O)c3C(=O)NCC(C)c3ccccc3)C2=O)C(=O)c2cc(O)c(O)c(C(=O)NCC(C)c3ccccc3)c2C1=O (stereo not drawn) | 310

Field Ki (system: Induced myeloid leukemia cell differentiation protein Mcl-1 (Homo sapiens, UniProt Q07820)) for entry CC1=C(C2=C(C)C(=O)c3c(cc(O)c(O)c3C(=O)Cc3ccccc3)C2=O)C(=O)c2cc(O)c(O)c(C(=O)Cc3ccccc3)c2C1=O = 230
